Biological target: T1, RalB (residues 1-185, Q72L) (UniProt P11234 1-185, Q72L)
T1 construct: source: expressed from pMAT10 as His6-MBP fusion, prepared and cleaved from its tags as described previously
T1 sequence (looked up): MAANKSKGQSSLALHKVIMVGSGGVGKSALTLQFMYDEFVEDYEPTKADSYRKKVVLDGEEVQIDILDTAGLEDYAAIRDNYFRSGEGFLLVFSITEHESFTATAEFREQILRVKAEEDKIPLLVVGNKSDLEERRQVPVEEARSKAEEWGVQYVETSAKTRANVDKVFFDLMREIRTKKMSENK
Assay: fluorescence polarisation; direct binding of 20 nM FAM-labelled peptide to varying concentrations of small GTPase; 298 K; read after 30 min at room temperature; single-site binding model; n >= 2
Conditions: both partners purified
Positions of bridges follow the written chain, without caps; N, C: chain ends. Non-standard residues stand in square brackets, D forms with d. No end group written: not given here. *: point of attachment. 5FAM = O=C1OC2(c3ccc(O)cc3Oc3cc(O)ccc32)c2ccc(C(=O)*)cc21; S5 = C=CCCC[C@](C)(N)C(=O)O
Catalogue of Kd values
Give the value, in units of nM, as a plain number.

# binder, observable, measurement
records = [
    ("5FAM-L[S5]KEH[S5]LWEVLRILTALRRKLREA (staple 2-6)", "Kd", 159),
]

Now take the following binder into account.
[in] Can you look up the measured Kd of 5FAM-L[S5]KEE[S5]LWEVQRILTALKRKLREA (staple 2-6) for me?
[out] 4700

Hey, just so you know, these numbers are from paper PMC7949049.
